Below, each of the molecules is paired with its reported Growth Rate value.
Tested on: Fibroblast
Assay: Incucyte cell viability with human fibroblast; further: unitless GR value; below 1 slowed growth and below 0 cell loss
Type: toxicity, cell-based
Conditions: 0 h, 10 µM, compound concentration 10 uM, replicate number 2, timepoint 0 hours

| MOLECULE | Growth Rate |
| --- | --- |
| CC(C)CC(=O)Nc1cncc(-c2ccc3[nH]nc(-c4nc5c(-c6cccc(F)c6)cncc5[nH]4)c3c2)c1 | 0.49 |
| O=C(Nc1cc(-c2cn[nH]c2)ccc1N1CCOCC1)c1ccc(-c2ccc3ncccc3c2)o1 | -0.67 |
| C[S+](C)[O-] [DIMETHYL SULFOXIDE] | 0.18 |
| Cc1ccc(CNc2ncnc3ccc(-c4ccc(CO)o4)cc23)o1 | 0.65 |
| O=C(O)c1ccccc1S(=O)(=O)NCCCCN1C(=O)c2cccc3cccc(c23)C1=O | 0.58 |
| Cc1nccc(COC(=O)N2C[C@@H]3[C@@H](CNC(=O)c4ccc5[nH]nnc5c4)[C@@H]3C2)n1 | 0.77 |
| Nc1ncnc2c1ncn2[C@@H]1O[C@H](CO)[C@@H](O)[C@H]1O | 0.19 |
| C=CCN1C[C@H](C(=O)N(CCCN(C)C)C(=O)NCC)C[C@@H]2c3cccc4[nH]cc(c34)C[C@H]21 | 0.7 |
| COCCCN1CCC(NC(=O)c2cc(Cl)c(N)c3c2OCC3)CC1 [PRUCALOPRIDE] | 0.89 |
| Br.Cc1cccc(C2CN(C)CCc3c2cc(O)c(O)c3Cl)c1 (centres undefined) | 0.18 |
| C[C@H]1CN(C[C@H](Cc2ccccc2)C(=O)NCC(=O)O)CC[C@@]1(C)c1cccc(O)c1 | -0.31 |
| CCOc1c2c(c(OCC)c3ncccc13)CN(c1ccc(CS(=O)(=O)NC(=O)Cc3ccccc3OC)cc1C)C2=O | 0.58 |
| COc1cc(Nc2ncc3c(n2)-c2ccc(Cl)cc2C(c2c(F)cccc2OC)=NC3)ccc1C(=O)O | 0.68 |
| N#Cc1cc(F)cc(-c2nc(-c3ccc(F)cn3)no2)c1 | 0.68 |
